Where do these numbers come from? They come from ChEMBL document CHEMBL5614404.

Would you mind telling me the reported solubility thermodynamic at 24 h of each entry?
Assay: Thermodynamic solubility in aqueous media incubated for 24 hrs by shake flask method
Assay type: physicochemical
Conditions: read-out: Therm_solubility
One number for each entry, in µM.

{"columns": ["mol_smiles", "solubility thermodynamic at 24 h [µM]"],
 "data": [
  ["N#Cc1ccc(C(=O)Nc2sc3c(c2C(=O)Nc2ccccc2O)CCCCC3)cc1", 17.6]
]}

// moving on: another record for solubility thermodynamic at 24 h
Field request: solubility thermodynamic at 24 h | item: `O=C(Nc1sc2c(c1C(=O)Nc1ccccc1O)CCCCC2)c1ccc([N+](=O)[O-])cc1O`
49.8

###

Experiment: Inhibition of heterodimerization of C-terminal His-tagged Influenza virus PA (239 to 716 residues)/N-terminal GST-tagged Influenza virus PB1 (1 to 25 residues) incubated overnight by ELISA
Set-up: species or system unidentified influenza virus
recorded_endpoint: IC50 (µM)
Answers are plain numbers, in µM.

Field request: IC50 | item: O=C1C(c2ncc([N+](=O)[O-])s2)CC[C@@H]2CCCC[C@@H]12 (stereo partly specified)
18.5

###

Experiment: Selectivity index, ratio of CC50 for MDCK cells to EC50 for Influenza A virus Puerto Rico/8/1934 (H1N1) infected in MDCK cells
Format: toxicity, cell-based
Conditions: dog, read-out: Ratio CC50/EC50
Would you mind telling me the reported selectivity ratio of each entry?

The following compounds have reported results that may help.
{"columns": ["mol_smiles", "selectivity ratio"],
 "data": [
  ["O=C(Nc1sc2c(c1C(=O)Nc1ccc(F)cc1)CCCCC2)c1ccccc1O", "> 284"],
  ["O=C(Nc1sc2c(c1C(=O)Nc1ccccn1)CCCCC2)c1ccccc1O", "> 119"],
  ["O=C(Nc1sc2c(c1C(=O)Nc1ccccn1)CCCCC2)c1ccc([N+](=O)[O-])cc1", "> 1090"]
]}

Each compound below has a reported value. Please supply its selectivity ratio.
1. O=C(Nc1sc2c(c1C(=O)Nc1ccc(Cl)cc1)CCCCC2)c1ccccc1O
2. O=C(Nc1sc2c(c1C(=O)Nc1nccs1)CCCCC2)c1ccccc1O

["> 208", "> 1040"]

###

Tested on: Influenza A virus
Experiment: Antiviral activity against Influenza A virus PR/8/34 infected in MDCK cells incubated for 48 hrs by plaque reduction assay
Format: functional, organism-based
recorded_endpoint: EC50 (µM)
Answers are plain numbers, in µM.

Field request: EC50 | item: NC(=O)c1ncn([C@@H]2O[C@H](CO)[C@@H](O)[C@H]2O)n1 [RIBAVIRIN]
8.7

###

Test: Cytotoxicity against MDCK cells incubated for 48 hrs by MTT assay
Assay type: toxicity, cell-based, Canis lupus familiaris
Details: dog
Label satisfied when CC50 at 48 h is strictly below 100 µM; at or above that, label not satisfied.

Look over these answered cases.
{"columns": ["mol_smiles", "classification"],
 "data": [
  ["O=C(Nc1sc2c(c1C(=O)Nc1ccccn1)CCCCC2)c1ccc([N+](=O)[O-])cc1", "not satisfied"],
  ["O=C(Nc1sc2c(c1C(=O)Nc1ccccn1)CCCCC2)c1cccs1", "satisfied"],
  ["N#Cc1ccc(C(=O)Nc2sc3c(c2C(=O)Nc2ccccn2)CCCCC3)cc1", "not satisfied"],
  ["O=C(Nc1sc2c(c1C(=O)Nc1ccc(Cl)cc1)CCCCC2)c1ccc([N+](=O)[O-])cc1O", "not satisfied"],
  ["O=C(Nc1sc2c(c1C(=O)Nc1ccc(C(F)(F)F)cc1)CCCCC2)c1ccc(Cl)s1", "not satisfied"]
]}

Consider `O=C(Nc1sc2c(c1C(=O)Nc1ccccc1O)CCCCC2)c1ccc([N+](=O)[O-])cc1` . Does its CC50 at 48 h lie strictly below 100 µM?
satisfied

Subsequent entry: `O=C(Nc1sc2c(c1C(=O)Nc1ccccc1O)CCCCC2)c1ccc([N+](=O)[O-])cc1O`
not satisfied

Subsequent entry: `O=C(Nc1sc2c(c1C(=O)Nc1ccccn1)CCCCC2)c1ccc([N+](=O)[O-])cc1O`
not satisfied

Subsequent entry: `O=C(Nc1sc2c(c1C(=O)Nc1ccccc1O)CCCCC2)c1ccccc1O`
not satisfied

Subsequent entry: `O=C(Nc1sc2c(c1C(=O)Nc1ccc(C(F)(F)F)cc1)CCCCC2)c1ccc([N+](=O)[O-])cc1`
not satisfied

###

Tested on: Influenza A virus
Experiment: Antiviral activity against Influenza A virus Puerto Rico/8/1934 (H1N1) infected in MDCK cells incubated for 48 hrs by plaque reduction assay
Assay type: functional, organism-based
recorded_endpoint: pEC50
One number for each entry, as −log10 of the molar value.

The following compounds have reported results that may help.
{"columns": ["mol_smiles", "system_under_test", "recorded_endpoint", "experimental_value"],
 "data": [
  ["O=C(Nc1sc2c(c1C(=O)Nc1ccc(Cl)cc1)CCCCC2)c1ccccc1O", "Influenza A virus", "pEC50", 5.92],
  ["O=C(Nc1sc2c(c1C(=O)Nc1nccs1)CCCCC2)c1ccccc1O", "Influenza A virus", "pEC50", 6.62],
  ["O=C(Nc1sc2c(c1C(=O)Nc1ccccn1)CCCCC2)c1ccccc1O", "Influenza A virus", "pEC50", 5.68],
  ["O=C(Nc1sc2c(c1C(=O)Nc1ccc(F)cc1)CCCCC2)c1ccccc1O", "Influenza A virus", "pEC50", 6.06]
]}

Field request: pEC50 | item: `O=C(Nc1sc2c(c1C(=O)Nc1ccccn1)CCCCC2)c1ccc([N+](=O)[O-])cc1`
6.64

###

Test system: Influenza B virus
Assay: Antiviral activity against Influenza B virus Brisbane/60/2008 infected in MDCK cells by plaque reduction assay
Assay type: functional, organism-based
Conditions: Brisbane/60/2008, MDCK
recorded_endpoint: pEC50
Give bare numbers, as −log10 of the molar value.

Field request: pEC50 | item: O=C1C(c2ncc([N+](=O)[O-])s2)CC[C@@H]2CCCC[C@@H]12 (stereo partly specified)
6.03

###

Would you mind telling me the reported CC50 at 48 h of each entry?
Assay: Cytotoxicity against MDCK cells incubated for 48 hrs by MTT assay
Assay type: toxicity, cell-based, Canis lupus familiaris
Settings: dog

The following molecules have reported results that may help.
{"columns": ["mol_smiles", "CC50 at 48 h"],
 "data": [
  ["O=C(Nc1sc2c(c1C(=O)Nc1ccccn1)CCCCC2)c1ccccc1O", "> 250 µM"],
  ["O=C(Nc1sc2c(c1C(=O)Nc1ccc(F)cc1)CCCCC2)c1ccccc1O", "> 250 µM"],
  ["O=C(Nc1sc2c(c1C(=O)Nc1ccccn1)CCCCC2)c1ccc(Cl)s1", "> 250 µM"],
  ["O=C(Nc1sc2c(c1C(=O)Nc1ccc(Cl)cc1)CCCCC2)c1ccc(Cl)s1", "> 250 µM"],
  ["O=C(Nc1sc2c(c1C(=O)Nc1nccs1)CCCCC2)c1ccc(Cl)s1", "> 250 µM"]
]}

Each molecule below has a reported value. Please supply its CC50 at 48 h.
1. O=C(Nc1sc2c(c1C(=O)Nc1ccc(OC(F)F)cc1)CCCCC2)c1ccc([N+](=O)[O-])cc1
2. O=C(Nc1sc2c(c1C(=O)Nc1nccs1)CCCCC2)c1ccc([N+](=O)[O-])cc1O
3. O=C(Nc1sc2c(c1C(=O)Nc1ccc(C(F)(F)F)cc1)CCCCC2)c1ccccc1O
4. O=C(Nc1sc2c(c1C(=O)Nc1nccs1)CCCCC2)c1ccccc1O
5. O=C(Nc1sc2c(c1C(=O)Nc1ccc(C(F)(F)F)cc1)CCCCC2)c1ccc([N+](=O)[O-])cc1O
6. O=C(Nc1sc2c(c1C(=O)Nc1ccccn1)CCCCC2)c1ccc2nonc2c1

1: > 250 µM; 2: 64.5 µM; 3: > 200 µM; 4: > 250 µM; 5: 10 µM; 6: 10.5 µM

Each molecule below has a reported value. Please supply its CC50 at 48 h.
1. O=C(Nc1sc2c(c1C(=O)Nc1ccccn1)CCCCC2)c1ccc(Br)cn1
2. N#Cc1ccc(C(=O)Nc2sc3c(c2C(=O)Nc2ccc(Cl)cc2)CCCCC3)cc1
3. O=C(Nc1sc2c(c1C(=O)Nc1ccccc1O)CCCCC2)c1ccc(Cl)s1
4. N#Cc1ccc(C(=O)Nc2sc3c(c2C(=O)Nc2nccs2)CCCCC3)cc1

1. > 250 µM
2. > 250 µM
3. 57.7 µM
4. > 250 µM
